Form field: Percent Effect (one value per entry).
molecular target: Tyrosyl-tRNA synthetase, putative (Trypanosoma cruzi (strain CL Brener)); experiment: Trypanosoma cruzi tyrosyl tRNA synthetase (TcYRS) _High Tyrosine SOP; format: functional; set-up: scale not given: in the data most compounds retested in dose-response had high values; conditions: 30 µM
measure: Percent Effect (%)

INSERT INTO assay_data (compound, measure, observedmeasurement) VALUES
  ('Cc1cnn(CC2CN(Cc3nnc(C4CC4)o3)CCO2)c1 (centres undefined)', 'Percent Effect', 1.98),
  ('CCn1c(C)nnc1CN(C)C1CCN(CCc2ccncc2)C1 (centres undefined)', 'Percent Effect', 11.4),
  ('O=C(NCc1ccccc1)c1nnc2ccc(N3CCOCC3)cc2n1', 'Percent Effect', 6.35),
  ('O=C(NC1(c2cccc(F)c2)CCOCC1)c1ccccn1', 'Percent Effect', -6.45),
  ('CC1CCCCN1CCNC(=O)c1ccn(-c2ccc(F)cc2)n1 (centres undefined)', 'Percent Effect', -26.1),
  ('N#Cc1ccnc(N2CCC(c3nccn3Cc3cscn3)CC2)c1', 'Percent Effect', 4.92),
  ('Cc1cc(CN2CCN(C(=O)NC(C)c3cccnc3)CC2)on1 (centres undefined)', 'Percent Effect', -0.49),
  ('OCCn1cc(CN2CCN(CCOc3ccccc3F)CC2)cn1', 'Percent Effect', -2.97),
  ('CC(C)C(=O)N1CCN(C(=O)c2cc(C(C)C)on2)[C@H]2CS(=O)(=O)C[C@H]21', 'Percent Effect', 0),
  ('Cc1nc[nH]c1CN1C[C@@H]2CC[C@H](C1)N(C(=O)CCNS(C)(=O)=O)C2', 'Percent Effect', 5.26),
  ('O=C(O)[C@]12CCCN(Cc3ccccc3)C[C@H]1CN(c1ncccn1)C2', 'Percent Effect', 4.17),
  ('COCCNS(=O)(=O)c1ccc2c(c1)CCN(C(=O)c1cncn1C)C2', 'Percent Effect', 7.37),
  ('Cc1nn2c(N3CCC(O)CC3)cc(-c3ccccc3)nc2c1C', 'Percent Effect', 5.21),
  ('c1ccc(OC[C@]23COC[C@H]2CN(c2ncccn2)C3)nc1', 'Percent Effect', 3.12),
  ('O=C(c1ccncc1F)N1CCc2ncnc(-c3ccncc3)c2CC1', 'Percent Effect', 1.08),
  ('O=C(CCNS(=O)(=O)c1ccccc1)NCc1ccoc1', 'Percent Effect', 8.2),
  ('CCN1C(=O)C2(CCOCC2)c2cc(NC(=O)c3ccco3)ccc21', 'Percent Effect', 5.38),
  ('CSCCCNC(=O)Nc1cccc(-c2nccn2C)c1', 'Percent Effect', 1.05),
  ('CN(C)CCCNC(=O)c1cc(Br)c2c(c1)OCCO2', 'Percent Effect', 4.92),
  ('O=C(NCc1cccnc1)C1=NN(c2ccccc2)C(=O)CN1', 'Percent Effect', 6.45),
  ('COc1c(CNC2CCN(C(=O)C3CC3)CC2)c(C(C)C)nn1C', 'Percent Effect', 6.4),
  ('COc1cccc(CCC(=O)N2CCCCC2Cn2cccn2)c1 (centres undefined)', 'Percent Effect', 0.952),
  ('O=S(=O)(c1ccccc1)N1CCN(CCn2ccnc2)CC1', 'Percent Effect', 6.45),
  ('CC(=O)N1CC(=O)N(c2ccccc2)CC12CCN(Cc1cccs1)C2 (centres undefined)', 'Percent Effect', 5.21);
